The reported numbers originate from patent US20130012693.

- Target entity: beta-NGF (Homo sapiens) (UniProt P01138)
- Sequence (P01138 122-241): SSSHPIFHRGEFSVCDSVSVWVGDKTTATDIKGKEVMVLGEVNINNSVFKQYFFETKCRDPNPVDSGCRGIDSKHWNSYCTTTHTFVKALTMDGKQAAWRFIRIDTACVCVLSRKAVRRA
- Experiment: filter
- Protocol conditions: BndU at Z' (n) positions [n positions 30,37,38,43,44,45,51,52,54 = modified dU]; SB17T-0.002, 37 C; Zorbax resin capture
Reported metric: Kd (nM)
All answers are understood in nM, so give the number only.

Fill in reported Kd for this entry: GAGTGACCGTCTGCCTGCAGCGGGACACATGAGGACTTGGGGTTTAGCCGTTGTGGCACAGAGAAGAAACAAGACC [2426-66]
5

====

- Target entity: beta-NGF (Homo sapiens) (UniProt P01138)
- Experiment: cell_activity
- Protocol conditions: BndU at Z' (n) positions, 3'-idT in cell assays [n positions 3,10,11,16,17,18,24,25,27 = modified dU], PC12 neurite growth, 0.38 nM NGF
Reported metric: IC50 (nM)
All answers are understood in nM, so give the number only.

Fill in reported IC50 for this entry: CATGAGGACTTGGGGTTTAGCCGTTGTG [2426-66-50]
1
